Test Summary: yeast display, Sf9 membrane polyspecificity reagent, FACS + sequencing; frameworks hold sequencing errors
Readout Type: polyreactivity (PSR sort gate)

- Seq Text: "QVQLVESGGGLVQAGGSLRLSCADSGSIFAYAMGCSRQAPRKESELVAGISSSGGRTYYADSVKGRFSISRDNAKNTVYLQMNSLKPEDTAVYYCAAKRWGLYKGYYWGQGTQVTVSS"
  polyreactivity (PSR sort gate): "high polyreactivity"
- Seq Text: "QVQLVESGGGLVQAGGSLRISCAASGFTFPSNAMGWYRQAPGKERELVAAITGGGRTYYADSVKGRFTISRDNAKNTVFFQMNSLKPEDTAVYYCNRPTRVHLTHYDYCGQGTQVTVSS"
  polyreactivity (PSR sort gate): "high polyreactivity"
- Seq Text: "QVQLVESGGGLVQAGGSLRLICAATGITFEGYAMGWYRQAPGKERELVAAIRSSGTSTYYADSVKGRFTISRDNAKNTVYLQMNSLKPEDTAVYYCNRARSSSRYDYWGQGTQVTVSS"
  polyreactivity (PSR sort gate): "low polyreactivity"
- Seq Text: "QVQLVDSGGGLVQAGGSLRLSCAASGGTFDWYTMGWYRQAPGKERELVADITSGGSTYYADSVKGRFTISRDNAKNTVYLQMNSLKPEDTAVCYCATTVYSTSGYPYDYWGQGTQVTVSS"
  polyreactivity (PSR sort gate): "high polyreactivity"

Please give the documented polyreactivity (PSR sort gate) of QVQLVESGGGLVQAGGSLRLSCAASGRIFRLYAMGWYSQEPGKDRELVATITSGGTYYADSVKGRFTISRDNAKNTVYLQMISLSPEDTAVYYCTARRRLRYDFWGQGTQVTVSS
low polyreactivity

###

Test Summary: yeast display, Sf9 membrane polyspecificity reagent, FACS + sequencing; frameworks hold sequencing errors
Readout Type: polyreactivity (PSR sort gate)

// worked examples, polyreactivity (PSR sort gate) included
- Seq Text: "QVQLVESGGGLVQAGGSLRLSCAASGFIFSYNAMGWYREAPGKERELVAAISSRGGSTYYADSVKGRFTISRDNAKNTVYLQMNSLKPEDTADYYCAVASRRVYTAPYDYWGQGTQVTVSS"
  polyreactivity (PSR sort gate): "high polyreactivity"
- Seq Text: "QVQLVESGGGLVQAGGSLRLSCAASGSTFGWNAMGWYRQAPGKERELVAAITRGGRTTYADSVKGRFTISRDNAKNTVYLQMNSLKPEDTAVYYCAALHGRYPNRYDYWGQGTQVTVSS"
  polyreactivity (PSR sort gate): "low polyreactivity"
- Seq Text: "QVQLVESCGGLVQAGCSLRLSCAASGSIRYYPMGWYRQAPGKERELVAGITRNGGSTYYADSVKGRFTISRDNAKITVYLQMNSLKPEDTAVYYFAAGFTTRRGEYNYWGQGTQVTVSS"
  polyreactivity (PSR sort gate): "high polyreactivity"
- Seq Text: "QGQLVESGGGLVQAGGSLRLSCAASGRTFRYNAMGWYRQAPGKERELVAAITWGGGSTDYADSVKGRFTISRDNAKNTVYLQMHSLKPEDTAVYYCNADYIGNYHSIYQYDYWGQGTQVTVSS"
  polyreactivity (PSR sort gate): "low polyreactivity"

Next up:
Please give the documented polyreactivity (PSR sort gate) of QVQLVESGGGLVQAGGSLRLSCAASGSTYWNAMGWYRQAPGKERELVAAITFRGGSTYADSLKGRFTISRDNAKNTVSLQMISLKPEDTAVYYCAKASYHRWYNVRNRAGYDYWGQGTQVTVSS
high polyreactivity
